# EXPERIMENTAL PROTOCOL: yeast display, Sf9 membrane polyspecificity reagent, FACS + sequencing; frameworks hold sequencing errors
READOUT LABEL: polyreactivity (PSR sort gate)

Answered examples (4):
SEQ TEXT	polyreactivity (PSR sort gate)
QVQLVESGGGLVQAGGSLRLSCAASGFTFRFYAMGWYRQAPAKERELVAAISRGGSTYYADSVKGRFTISRDNAKYTVYLQMNSLKPEDTAVFYCAKRGRYGDYWGQGTLVTVSS	high polyreactivity
QVLLVESGGALVQAGGSLRLSCAASGYIFRFYTLRGYRQAPGKERELVAAISAGGSTNSADSVKGRFTISRDNAKNTVYLQMNSLKPEDTAVEYCAARYYSRYYWGQGTQVTVSS	low polyreactivity
QVQLVESGGGLVQAGGSLRLSCAASGSIFKSYAMGWYRQAPGKERELVAAISWSGTSTYYADSVKGRFTISRDNAKNTVYLQMNSLKPEDTAVYDCAASGDYGEYGYWGQGTQVTVSS	low polyreactivity
QVQLVESVGGLVQAGGSLRLSCAASGRIFRKYDMGWYRQAPGKERELVAAISGTGITYYADSVKGRFTISRDNAKNTVYLQMNSLKPEDTAVYYCARGSKPRAWSWAYPSATSIYDYWGQGTQVTVSS	low polyreactivity

Given item `QVQLVESGVGLVQAVGSLRLSCAASGRIFPAYVMGWYRQAPGKERELVATIDNGGGTYYADSVKGRFTISCDNAKYTVYLQMNSLKPEDTAVYYCARDRHVRWGLKRDYWGQGTQVTVSS` , the value recorded as its polyreactivity (PSR sort gate) is low polyreactivity

Given item `QVQLVESGGGLVQAGGSLRLSCAASGLSFTFGYAMGWYRQAPGKERELVASISSSGGNTYYADSVKGRFTISRDNAKNTVYLQMNSLKPEDTAVYYCAVYSHRRNMNYWGQGTQVTVSS` , the value recorded as its polyreactivity (PSR sort gate) is high polyreactivity

Given item `QVQLVESGGGLVQAGVSLRLSCAASGSIFSWNAMGWYRQAPGKERELVATITWNGGRTYYADSVKGRFTISRDNAKNTVYLQMNSLKPEDTAVYYCAARYYVYWTYPYRVLSYYYWGQGTQVTVSS` , the value recorded as its polyreactivity (PSR sort gate) is high polyreactivity

Given item `QVQLVESGGGLVQAGGSLRLSCAASGRTFERNAMGWYRQAPGKERELVAAITSGDGTSYADSVKGRFTISRDNAKNTVYLQMNSLKPEDTAVYYCAVSKGVFLVRGYAYHVGYWGQGTQVTVSS` , the value recorded as its polyreactivity (PSR sort gate) is low polyreactivity
